Measured kon accompanies every entry in the list below.
- Assayed target: T1, his-tagged hTfR1 (Acro Biosystems p/n CD1-H5243) (human, UniProt P02786 89-760)
- T1 construct: Bought reagent of the SPR assay
- T1 sequence (P02786 89-760 limits assumed): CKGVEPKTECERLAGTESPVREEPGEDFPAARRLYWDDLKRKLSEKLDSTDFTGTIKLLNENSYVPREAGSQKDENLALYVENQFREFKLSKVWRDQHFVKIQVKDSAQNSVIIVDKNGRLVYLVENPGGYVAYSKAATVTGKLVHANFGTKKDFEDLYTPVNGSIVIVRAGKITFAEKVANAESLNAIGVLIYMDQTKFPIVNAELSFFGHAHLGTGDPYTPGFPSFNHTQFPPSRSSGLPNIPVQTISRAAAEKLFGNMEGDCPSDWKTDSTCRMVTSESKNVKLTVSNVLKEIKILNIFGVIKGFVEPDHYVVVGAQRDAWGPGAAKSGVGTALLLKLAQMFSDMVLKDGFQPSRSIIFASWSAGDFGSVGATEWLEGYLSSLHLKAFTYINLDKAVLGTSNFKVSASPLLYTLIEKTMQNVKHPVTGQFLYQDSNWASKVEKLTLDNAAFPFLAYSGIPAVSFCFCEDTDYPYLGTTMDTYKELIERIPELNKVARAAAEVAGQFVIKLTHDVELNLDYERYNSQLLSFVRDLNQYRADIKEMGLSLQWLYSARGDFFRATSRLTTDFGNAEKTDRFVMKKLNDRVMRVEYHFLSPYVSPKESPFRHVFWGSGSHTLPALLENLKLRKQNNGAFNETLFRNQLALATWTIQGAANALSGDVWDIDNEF
- Experiment: SPR, Biacore X100, His-tagged TfR1 captured by anti-His
API: value field is a number in M⁻¹ s⁻¹; no unit string.

Example cases with answers are listed next.
Input: Give the measured kon of Fab0071 (Fab, V domains shown) VH: EVQLVESGGGLVQPGGSLRLSCATSGYTFNSYWMHWVRQAPGKGLEWVAEINPTNGRTNYIEKFKSRITLSVDKSKSTVYLQMNSLRAEDTAVYYCARGTRAYHYWGQGTLVTVSS VL: DIQLTQSPSSLSASVGDRVTITCRASDGLYSNLAWYQQKPGKAPKLLIYDARNLASGVPSRFSGSGSGTDYTLTISSLQPEDFATYYCQHFWGTPLTFGQGTKVEIKR .
Output: 1.56e+06

Input: Give the measured kon of Fab0070 (Fab, V domains shown) VH: EVQLVESGGGLVQPGGSLRLSCATSGFTFTSYWMHWVRQAPGKGLEWVAEINPTNGRTNYIEKFKSRITLSVDKSKSTVYLQMNSLRAEDTAVYYCARGTRAYHYWGQGTLVTVSS VL: DIQLTQSPSSLSASVGDRVTITCRASDKLYSNLAWYQQKPGKAPKLLIYDATLLASGVPSRFSGSGSGTDYTLTISSLQPEDFATYYCQHFWGTPLTFGQGTKVEIKR .
Output: 1.3e+06

Input: Give the measured kon of Fab0074 (Fab, V domains shown) VH: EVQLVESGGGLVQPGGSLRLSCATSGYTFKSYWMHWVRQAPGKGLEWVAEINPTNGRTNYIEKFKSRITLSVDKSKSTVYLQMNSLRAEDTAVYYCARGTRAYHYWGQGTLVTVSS VL: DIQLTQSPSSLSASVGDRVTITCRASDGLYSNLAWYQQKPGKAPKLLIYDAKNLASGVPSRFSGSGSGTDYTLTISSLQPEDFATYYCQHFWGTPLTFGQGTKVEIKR .
Output: 1.66e+06

Continuing:
Input: Give the measured kon of Fab0061 (Fab, V domains shown) VH: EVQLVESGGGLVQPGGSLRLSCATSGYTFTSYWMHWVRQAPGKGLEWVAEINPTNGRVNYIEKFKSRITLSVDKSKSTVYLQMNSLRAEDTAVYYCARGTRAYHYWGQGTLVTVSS VL: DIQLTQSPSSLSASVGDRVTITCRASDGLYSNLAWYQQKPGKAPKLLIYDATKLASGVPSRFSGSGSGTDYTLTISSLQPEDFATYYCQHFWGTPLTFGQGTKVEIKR .
Output: 1.42e+06
